# melting point per record follows
Form entry: enter the amount, then its unit.

{"columns": ["Compound", "Val"],
 "data": [
  ["NCCCCCCO [6-Aminohexan-1-ol]", "56 °C"]
]}

**Query** Can you look up the measured melting point of CC(=O)Oc1ccccc1C(=O)O [acetylsalicylic acid] for me?
**Result** 135 °C

**Query** Would you kindly repeat that for FC(F)(F)c1ccccc1CBr [2-(trifluoromethyl)benzyl bromide] ?
**Result** 29 °C

**Query** Please do the same for COc1ccc(C(=O)O)cc1Br [3-bromo-4-methoxybenzoic acid] as well.
**Result** 220 °C

**Query** Try this compound next: O=C(Nc1ccccn1)C(C(F)(F)F)C(F)(F)F
**Result** 109 °C

**Query** Request: O=C(O)c1cccc(Br)c1 [m-bromobenzoic_acid]
**Result** 157 °C

**Query** Please give the result for O=C(O)c1cccnc1 [nicotinic acid] too.
**Result** 237 °C

---

Labels assigned by melting point range: class 0 (below 50 °C), class 1 (50 °C to below 100 °C), class 2 (100 °C or more)

**Query** The entry to classify is OCCNc1ccccc1 [N-phenylethanolamine] ; which class holds it?
**Result** class 0

**Query** Would you kindly repeat that for Cc1cccc([N+](=O)[O-])c1C [3-nitro-o-xylene] ?
**Result** class 0

**Query** # repeat for CC(=O)c1ccc(Cl)c(Cl)c1 [3',4'-dichloroacetophenone]
**Result** class 1

**Query** // next record O=C(Oc1ccccc1)c1ccccc1 [phenyl benzoate]
**Result** class 1

**Query** COc1ccc(-c2ccccc2)cc1 [4-methoxybiphenyl] ?
**Result** class 1

**Query** Continue with CC(C)CCC[C@@H](C)[C@H]1CC[C@H]2[C@@H]3CC[C@H]4C[C@@H](O)CC[C@]4(C)[C@H]3CC[C@]12C [5alpha-cholestan-3beta-ol]
**Result** class 2

**Query** Same read-out for c1ccc([Si](c2ccccc2)(c2ccccc2)[Si](c2ccccc2)(c2ccccc2)c2ccccc2)cc1 [hexaphenyldisilane] ?
**Result** class 2

**Query** How about CCCCCCCCCCCCCC=O [tetradecyl_aldehyde] ?
**Result** class 0

**Query** Item: c1cc2c3c(cccc3c1)CC2 [1,2-Dihydroacenaphthylene]
**Result** class 1

**Query** Also check c1ccc2cc3cc4ccccc4cc3cc2c1 [Tetracene]
**Result** class 2

**Query** Now the compound CC(=O)Nc1cccc(F)c1 [3'-fluoroacetanilide]
**Result** class 1

**Query** Then this compound: CCOC(=O)Cc1ccc(O)cc1 [ethyl 4-hydroxyphenylacetate]
**Result** class 0

**Query** Same for NC(=O)C(F)(F)F [2,2,2-trifluoroacetamide]
**Result** class 1

**Query** Quick one: C1COCO1 [1,3-dioxolane]
**Result** class 0

**Query** Same question for Nc1cccc(N)n1 [2,6-diaminopyridine] please.
**Result** class 2

**Query** Entry to check: NCC(O)c1ccccc1 (stereo unspecified) [2-Amino-1-phenylethanol]
**Result** class 1

**Query** Then this compound: C=C1/C(=N/Nc2cc(Cl)c(Cl)cc2Cl)C(=O)N(C)C(=O)N1C
**Result** class 2

**Query** Next compound: Oc1c(F)c(F)c(F)c(F)c1F [pentafluorophenol]
**Result** class 0

**Query** Quick one: NCCCCCC(=O)O [6-aminocaproic acid]
**Result** class 2
